System: HCT116 cells
method: Growth inhibition assay (MTS)
Assay type: cell-based
experimental.setup: Homo sapiens, HCT-116; Table 5; HCT116 cells, 48 hours treatment, MTS; read-out: Growth Inhibition (GI50, uM) HCT116
# key: entry, value: GI50
Numbers only here, please. The scale is µM.

1. CN1CC(=O)N2[C@@H](Cc3ccc(O)cc3)C(=O)N(Cc3ccc(F)cc3)C[C@@H]2N1C(=O)NCc1ccccc1 ... 1.48
2. CN1CC(=O)N2[C@@H](Cc3ccc(O)cc3)C(=O)N(Cc3ccccc3C(F)(F)F)C[C@@H]2N1C(=O)NCc1ccccc1 ... 1.66
3. C=CCN1CC(=O)N2[C@@H](Cc3ccc(OP(=O)(O)O)cc3)C(=O)N(Cc3cc(F)c(F)cc3N(C)C)C[C@@H]2N1C(=O)NCc1ccccc1 ... 2.1

Query compound follows.
Value wanted: GI50 (HCT116 cells) of entry "C=CCN1CC(=O)N2[C@@H](Cc3ccc(OP(=O)(O)O)cc3)C(=O)N(Cc3ccc(OC)cc3)C[C@@H]2N1C(=O)NCc1ccccc1" 1.6

----------
# key: entry, value: GI50
Test system: HCT116 cells
method: Growth inhibition assay (MTS)
Format: cell-based
experimental.setup: Homo sapiens, HCT-116; Table 5; HCT116 cells, 48 hours treatment, MTS; read-out: Growth Inhibition (GI50, uM) HCT116
Numbers only here, please. The scale is µM.

Solved entries (count: 2):
1) C#CCN1CC(=O)N2[C@@H](Cc3ccc(O)cc3)C(=O)N(Cc3ccc(F)cc3F)[C@@H](C)[C@@H]2N1C(=O)NCc1ccccc1 ... 9.9
2) C=CCN1CC(=O)N2[C@@H](Cc3ccc(OP(=O)(O)O)cc3)C(=O)N(Cc3ccccc3)C[C@@H]2N1C(=O)NCc1ccccc1 ... 0.6

Consider the compound "CN1CC(=O)N2[C@@H](Cc3ccc(O)cc3)C(=O)N(Cc3cccc(F)c3)C[C@@H]2N1C(=O)NCc1ccccc1" and give its measured GI50. 1.3

----------
# key: entry, value: inhibition at 25 µM
Test system: Survivin
method: Effect on survivin expression (Table 9)
Assay type: cell-based
experimental.setup: 25 uM

Solved entries (count: 5):
1. CN1CC(=O)N2[C@@H](CN(Cc3cccc4c3ncn4C)C(=O)[C@@H]2Cc2ccc(O)cc2)N1C(=O)NCc1ccccc1 ... 88%
2. CN1CC(=O)N2[C@@H](CN(Cc3cccc4cnn(C)c34)C(=O)[C@@H]2Cc2ccc(O)cc2)N1C(=O)NCc1ccccc1 ... 97%
3. CN1CC(=O)N2C(Cc3ccc(O)cc3)C(=O)N(Cc3cccc4cccnc34)CC2N1C(=O)NCc1ccccc1 (stereo not drawn) ... 100%
4. CN(C)c1cc(F)ccc1CN1C[C@@H]2N(C(=O)CN(C)N2C(=O)NCc2ccccc2)[C@@H](Cc2ccc(O)cc2)C1=O ... 81%
5. CCN(C)c1cccc(CN2C[C@@H]3N(C(=O)CN(C)N3C(=O)NCc3ccccc3)[C@@H](Cc3ccc(O)cc3)C2=O)c1 ... 96%

Consider the molecule "CN1CC(=O)N2[C@@H](CN(Cc3ccc(Cl)c4cccnc34)C(=O)[C@@H]2Cc2ccc(O)cc2)N1C(=O)NCc1ccccc1" and give its measured inhibition at 25 µM. 91%

Consider the molecule CN1CC(=O)N2C(Cc3ccc(O)cc3)C(=O)N(Cc3ccc(F)cc3F)CC2N1C(=O)NCc1ccccc1 (stereo not drawn) and give its measured inhibition at 25 µM. 93%

Consider the molecule "CN1CC(=O)N2[C@@H](CN(Cc3c(Cl)ccc4cccnc34)C(=O)[C@@H]2Cc2ccc(O)cc2)N1C(=O)NCc1ccccc1" and give its measured inhibition at 25 µM. 32%

Consider the molecule "CN1CC(=O)N2[C@@H](Cc3ccc(O)cc3)C(=O)N(Cc3cccc4ccccc34)C[C@@]2(C)N1C(=O)NCc1ccccc1" and give its measured inhibition at 25 µM. 99%

Consider the molecule "CN(C)c1c(Cl)cccc1CN1C[C@@H]2N(C(=O)CN(C)N2C(=O)NCc2ccccc2)[C@@H](Cc2ccc(O)cc2)C1=O" and give its measured inhibition at 25 µM. 21%
